Assay target: PGPH activity of purified bovine erythrocyte 20S proteasome (Bos taurus, UniProt Q3MHN0)
Construct: from tissue; host or cells: bovine erythrocytes (red blood cells)
Assay protocol: Enzyme kinetic assay, PGPH activity (Z-LLE-AMC)
Format: biochemical
Measurement setup: in words; data not shown for Glu compounds
Observable: selectivity for the PGPH activity

CC(C)CCCCC(=O)N1CCC[C@H]1C(=O)N[C@@H](Cc1ccccc1)C(=O)N[C@@H](CC(C)C)C(=O)[C@@]1(C)CO1 [Isooctanioc-PFL-Ex] :: no selectivity
CC(C)C[C@H](NC(=O)[C@H](Cc1ccccc1)NC(=O)[C@@H]1CCCN1C(=O)c1ccc(N(C)C)cc1)C(=O)[C@@]1(C)CO1 [N-dimethylaminobenzoyl-PFL-EX] :: no selectivity

====

Assay target: chymotrypsin-like activity of purified bovine erythrocyte 20S proteasome (Bos taurus, UniProt Q32KL2)
Construct: from tissue; host or cells: bovine erythrocytes (red blood cells)
Assay protocol: Enzyme kinetic assay, chymotrypsin-like activity (Suc-LLVY-AMC)
Assay type: biochemical
Measurement setup: pH 8; Table 4; inhibitor concentration range in parentheses; read-out: kassoc = kobs/[I] Chymotrypsin-like activity
Observable: kinact/KI (M⁻¹ s⁻¹)
Lab book: enter the figure in M⁻¹ s⁻¹, no units written.

Any idea what kinact/KI was measured for CC(=O)N[C@@H](CCc1ccccc1)C(=O)N[C@@H](CC(C)C)C(=O)N[C@@H](Cc1ccccc1)C(=O)N[C@@H](CC(C)C)C(=O)[C@@]1(C)CO1 ? 166000

Any idea what kinact/KI was measured for CC(C)C[C@H](NC(=O)[C@H](Cc1ccccc1)NC(=O)c1cnccn1)B(O)O [reference compound] ? 53000

Any idea what kinact/KI was measured for CC(C)C[C@@H](/C=C/S(C)(=O)=O)NC(=O)[C@H](CC(C)C)NC(=O)[C@H](CC(C)C)NC(=O)Cc1cc(N)c(O)c(I)c1 [reference compound] ? 5000

Any idea what kinact/KI was measured for CC(C)C[C@H](NC(=O)[C@@H](N)CCc1ccccc1)C(=O)N[C@@H](Cc1ccccc1)C(=O)N[C@@H](CC(C)C)C(=O)[C@@]1(C)CO1 ? 5200

Any idea what kinact/KI was measured for CC(C)[C@H](O)[C@@]12NC(=O)[C@H](C)[C@@H]1OC2=O [drawing 17, reference compound] ? 7400

====

Assay target: PGPH activity of purified bovine erythrocyte 20S proteasome (Bos taurus)
Construct: from tissue; host or cells: bovine erythrocytes (red blood cells)
Assay protocol: Enzyme kinetic assay, PGPH activity (Z-LLE-AMC)
Type: biochemical
Measurement setup: Table 3
Where a SMILES comes first, the peptide text is derived from it. The star is where a group is joined. X1 = CC(C)C[C@H](N*)C(=O)[C@@]1(C)CO1
Would you mind telling me the reported kobs/[I] PGPH of each entry?
Lab book: enter the figure in M⁻¹ s⁻¹, no units written.

Any idea what kobs/[I] PGPH was measured for CC(=O)NCC(=O)N1CCC[C@H]1C(=O)N[C@@H](Cc1ccccc1)C(=O)N[C@@H](CC(C)C)C(=O)C1(C)CO1 (some centres unmarked) [Ac-GPFL-Ex] ? 190

Any idea what kobs/[I] PGPH was measured for CC(=O)N1CCC(C(=O)N2CCC[C@H]2C(=O)N[C@@H](Cc2ccccc2)C(=O)N[C@@H](CC(C)C)C(=O)[C@@]2(C)CO2)CC1 [N-acetyl-piperidinecarbonyl-PFL-Ex] ? 45.3

Any idea what kobs/[I] PGPH was measured for CC(C)C[C@H](NC(=O)[C@H](Cc1ccccc1)NC(=O)[C@@H]1CCCN1C(=O)c1ccc(N(C)C)cc1)C(=O)[C@@]1(C)CO1 [N-dimethylaminobenzoyl-PFL-EX] ? 150

Any idea what kobs/[I] PGPH was measured for CC(=O)N[C@@H](C)C(=O)N[C@H](C(=O)N[C@@H](CC(C)C)C(=O)[C@@]1(C)CO1)C(C)C [Ac-AVL-Ex] ? 12.7

Any idea what kobs/[I] PGPH was measured for CC(=O)NCC(=O)NCC(=O)N1CCC[C@H]1C(=O)N[C@@H](Cc1ccccc1)C(=O)N[C@@H](CC(C)C)C(=O)[C@@]1(C)CO1 [Ac-GGPFL-Ex] (Ac-GGPF-X1) ? 170
